target_desc: T1, HLA-DR2b molecules purified from L cells co-transfected with HLA-DRA and HLA-DRB1*1501 (human)
T1 construct: also called purified DR2b molecules
experiment_notes: competitive ELISA (DELFIA) on purified HLA-DR2b, displacement of biotinylated CLIP 97-120

{"binder": "Ac-MIYWYSSWD-NH2 (acetylated nonapeptide amide) [HuPb33]", "relational_operator": "=", "IC50 / nM": 1}
{"binder": "Ac-MLIYYSSYL-NH2 (acetylated nonapeptide amide; also called HuPb28 peptide) [HuPb28]", "relational_operator": "<", "IC50 / nM": 1}
{"binder": "Ac-KGESGFRDR-NH2 (acetylated nonapeptide amide) [HuPb17]", "relational_operator": ">", "IC50 / nM": 100000}
{"binder": "Ac-MIDWYSSWP-NH2 (acetylated nonapeptide amide) [HuPb34]", "relational_operator": "=", "IC50 / nM": 1}

Sourced from patent US20110053840A1
